Molecular target: EPHB6 (human)
Assay: KINOMEscan competition binding
Conditions: compound 10.0 µM
Threshold 60%: kinase still bound, per cent of control strictly smaller gives Satisfied, otherwise Not satisfied.

Exercise: Strictly below 60% in kinase still bound, per cent of control? `N#Cc1c(NC(=O)c2cccc3ccccc23)sc2c1CCCC2`
Key: Not satisfied

Exercise: Strictly below 60% in kinase still bound, per cent of control? `Cn1c(=O)n(-c2ccc(C(C)(C)C#N)cc2)c2c3cc(-c4cnc5ccccc5c4)ccc3ncc21`
Key: Not satisfied

Exercise: Strictly below 60% in kinase still bound, per cent of control? `CCC(=O)N1CCN(c2ccc(-n3c(=O)ccc4cnc5ccc(-c6cnc7ccccc7c6)cc5c43)cc2C(F)(F)F)CC1`
Key: Not satisfied

Exercise: Strictly below 60% in kinase still bound, per cent of control? `O=C(NOC[C@H](O)CO)c1ccc(F)c(F)c1Nc1ccc(I)cc1F`
Key: Not satisfied

Exercise: Strictly below 60% in kinase still bound, per cent of control? `Cc1ccc2nc(NCCN)c3ncc(C)n3c2c1`
Key: Satisfied

Exercise: Strictly below 60% in kinase still bound, per cent of control? `O=C(NC1CC1)c1cccc(-c2ccc3c(NC(=O)C4CC4)n[nH]c3c2)c1`
Key: Satisfied

Exercise: Strictly below 60% in kinase still bound, per cent of control? `CN(C)C/C=C/C(=O)Nc1cccc(Nc2ncc3c(n2)N(C)c2ccccc2C(=O)N3C)c1`
Key: Satisfied

Exercise: Strictly below 60% in kinase still bound, per cent of control? `CCN1CCN(Cc2ccc(Nc3ncc4c(n3)N(C)c3ccccc3C(=O)N4C)cc2C(F)(F)F)CC1`
Key: Satisfied

Exercise: Strictly below 60% in kinase still bound, per cent of control? `COc1cc(N2CCN(C)CC2)ccc1Nc1nc(N)c(C(=O)c2c(Cl)cccc2Cl)s1`
Key: Not satisfied

Exercise: Strictly below 60% in kinase still bound, per cent of control? `COc1cc(C(=O)NC2CCN(C)CC2)ccc1Nc1ncc2c(n1)N(C1CCCC1)CCC(=O)N2C(C)C`
Key: Not satisfied

Exercise: Strictly below 60% in kinase still bound, per cent of control? `CCOc1cc2ncc(C#N)c(Nc3ccc(OCc4ccccn4)c(Cl)c3)c2cc1NC(=O)/C=C/CN(C)C`
Key: Not satisfied

Exercise: Strictly below 60% in kinase still bound, per cent of control? `Cc1cc([C@@H](C)Nc2ccccc2C(=O)O)c2nc(N3CCOCC3)cc(=O)n2c1`
Key: Satisfied

Exercise: Strictly below 60% in kinase still bound, per cent of control? `OCCCNc1cc(-c2ccnc(Nc3cccc(Cl)c3)n2)ccn1`
Key: Not satisfied

Exercise: Strictly below 60% in kinase still bound, per cent of control? `Cc1ccc(NC(=O)c2cccc(C(C)(C)C#N)c2)cc1Nc1ccc2ncn(C)c(=O)c2c1`
Key: Satisfied

Exercise: Strictly below 60% in kinase still bound, per cent of control? `CCCS(=O)(=O)Nc1ccc(F)c(C(=O)c2c[nH]c3ncc(-c4ccc(Cl)cc4)cc23)c1F`
Key: Satisfied

Exercise: Strictly below 60% in kinase still bound, per cent of control? `Nc1ccc(-c2ccc3ncc4ccc(=O)n(-c5cccc(C(F)(F)F)c5)c4c3c2)cn1`
Key: Not satisfied

Exercise: Strictly below 60% in kinase still bound, per cent of control? `C=CC(=O)Nc1cccc(Nc2nc(N[C@H]3CC[C@H](N(C)C)CC3)nc3c2ncn3C(C)C)c1`
Key: Not satisfied

Exercise: Strictly below 60% in kinase still bound, per cent of control? `O=C1Nc2ccc(I)cc2/C1=C/c1cc(Br)c(O)c(Br)c1`
Key: Satisfied

Exercise: Strictly below 60% in kinase still bound, per cent of control? `C=CC(=O)Nc1cc(NC(=O)c2ccc(C)c(NC(=O)c3ccno3)c2)cc(C(F)(F)F)c1`
Key: Not satisfied

Exercise: Strictly below 60% in kinase still bound, per cent of control? `O=C(O)c1ccc(Nc2ncc3c(n2)-c2ccc(Cl)cc2C(c2c(F)cccc2F)=NC3)cc1`
Key: Satisfied
